- Test system: SW-620
- Experiment: Growth inhibition of human SW620 cells after 48 hrs by SRB assay
- Format: functional, cell-based
- Measurement Setup: SW-620, 48 h
Experimental Readout: pIC50
Interpret pIC50 as the negative base-10 log of the concentration measured in mol/L.

QUERY: Which pIC50 is listed for COC(=O)/C=C1\C(=O)C=C2C3CC4CC(CCC4(C)N21)C3(C)NC(C)=O (stereo unspecified) ?
RESULT: 5.55

* * *

- Tested on: SF-539
- Experiment: Growth inhibition of human SF539 cells after 48 hrs by SRB assay
- Format: functional, cell-based
- Measurement Setup: SF-539, 48 h
Experimental Readout: pIC50
Recall that pIC50 is obtained by taking minus log10 of the concentration measured in molar.

QUERY: What value of pIC50 has been reported for the following molecule? COC(=O)/C=C1\C(=O)C=C2C3CC4CC(CCC4(C)N21)C3(C)NC(C)=O (stereo unspecified)
RESULT: 5.48

* * *

- Tested on: RPMI-8226
- Experiment: Growth inhibition of human RPMI8226 cells after 48 hrs by SRB assay
- Type: functional, cell-based
- Measurement Setup: RPMI-8226, 48 h
Experimental Readout: IC50 (µM)
Reply numerically in µM, unit not repeated.

QUERY: Which IC50 value is on record for COC(=O)/C=C1\C(=O)C=C2C3CC4CC(CCC4(C)N21)C3(C)NC(C)=O (stereo unspecified) ?
RESULT: 4.1

* * *

- System: EKVX
- Experiment: Growth inhibition of human EKVX cells after 48 hrs by SRB assay
- Format: functional, cell-based
Experimental Readout: pIC50
Expect pIC50 as a plain number equal to -log10 of the molar concentration.

QUERY: Need pIC50 of COC(=O)/C=C1\C(=O)C=C2C3CC4CC(CCC4(C)N21)C3(C)NC(C)=O (stereo unspecified) , thanks.
RESULT: 4.91
